Recorded values, source patent US20240279318A1.

- system under test: T1, AFP158/HLA-A*02:01 complex (human)
- T1 construct: flowed over the chip in SPR; also called AFP158 pro
- test method notes: SPR, KD ratio to AS170036 VL1VH1;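 also: crude scFv captured on a sensor chip, peptide–HLA complex passed over at several concentrations, association then buffer dissociation, KD derived from on- and off-rates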
Property: Affinity increase; scope: individual binders
attribute measured: Affinity increase (fold)

binder | observed value
LH98M (scFv, AS170036 VL1VH1 scFv mutein) scFv: QSALTQPRSVSGSPGQSVTISCAGTSSDVGSENYVSWYQQHPGKAPKLMIYQVNKRASGVPDRFSGSKSGNTASLTISGLQAEDEADYYCASYRSSDMNIVFGGGTKLTVLGGGGSGGGGSGGGGSEVQLVESGGGLVQPGGSLRLSCAASGFTFSSYAMSWVRQAPGKGLEWVSTINSGTGSPYYADSVKGRFTISRDNSKNTLYLQMNSLRAEDTAVYYCAKNFFDGSWFLGPPAMDYWGQGTLVTVSSHHHHHH | 1.8
LY34P (scFv, AS170036 VL1VH1 scFv mutein) scFv: QSALTQPRSVSGSPGQSVTISCAGTSSDVGSENPVSWYQQHPGKAPKLMIYQVNKRASGVPDRFSGSKSGNTASLTISGLQAEDEADYYCASYRSSDHNIVFGGGTKLTVLGGGGSGGGGSGGGGSEVQLVESGGGLVQPGGSLRLSCAASGFTFSSYAMSWVRQAPGKGLEWVSTINSGTGSPYYADSVKGRFTISRDNSKNTLYLQMNSLRAEDTAVYYCAKNFFDGSWFLGPPAMDYWGQGTLVTVSSHHHHHH | 0.2
LD97R (scFv, AS170036 VL1VH1 scFv mutein) scFv: QSALTQPRSVSGSPGQSVTISCAGTSSDVGSENYVSWYQQHPGKAPKLMIYQVNKRASGVPDRFSGSKSGNTASLTISGLQAEDEADYYCASYRSSRHNIVFGGGTKLTVLGGGGSGGGGSGGGGSEVQLVESGGGLVQPGGSLRLSCAASGFTFSSYAMSWVRQAPGKGLEWVSTINSGTGSPYYADSVKGRFTISRDNSKNTLYLQMNSLRAEDTAVYYCAKNFFDGSWFLGPPAMDYWGQGTLVTVSSHHHHHH | 0.5
